system: human recombinant USP2a catalytic domain (residues 258-605) (Homo sapiens, UniProt O75604)
Sequence (O75604 258-605): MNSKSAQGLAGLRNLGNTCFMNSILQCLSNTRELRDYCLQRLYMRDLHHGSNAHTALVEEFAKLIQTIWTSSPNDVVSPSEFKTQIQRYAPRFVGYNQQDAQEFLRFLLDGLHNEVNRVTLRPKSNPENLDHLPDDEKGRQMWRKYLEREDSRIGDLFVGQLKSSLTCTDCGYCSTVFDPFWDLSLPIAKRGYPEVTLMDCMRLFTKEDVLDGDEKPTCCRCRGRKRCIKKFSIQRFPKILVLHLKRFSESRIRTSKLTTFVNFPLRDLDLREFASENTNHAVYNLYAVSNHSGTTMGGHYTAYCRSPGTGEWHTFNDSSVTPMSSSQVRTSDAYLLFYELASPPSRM
assay protocol: Di-Ub K63-2 hydrolysis (FRET) assay
measurement parameters: read-out: IC50, USP2a activity, Di-Ub Assay; Di-Ub K63-2, 30 min pre-incubation
endpoint label: IC50 (µM)
API: value field is a number in µM; no unit string.

C[C@H](CCC(N)=O)[C@H]1CC[C@H]2[C@@H]3CC[C@@H]4C[C@H](O)CC[C@]4(C)[C@H]3CC[C@]12C [LCANH2, 3-hydroxylithocholanamide]    16.7
C[C@H](CCC(=O)O)[C@H]1CC[C@H]2[C@@H]3CC[C@@H]4CC(=O)CC[C@]4(C)[C@H]3CC[C@]12C [LCAK, 3-Oxo-Lithocholic Acid]    33.1
C[C@H](CCC(=O)NCC#N)[C@H]1CC[C@H]2[C@@H]3CC[C@@H]4C[C@H](O)CC[C@]4(C)[C@H]3CC[C@]12C [LCACN]    13.9

Pending compound:
Entry under test: C[C@H](CCC(=O)O)[C@H]1CC[C@H]2[C@@H]3CC[C@@H]4C[C@H](O)CC[C@]4(C)[C@H]3CC[C@]12C [LCA, Lithocholic acid, reference compound] . Its IC50 was 32

* * *

system: human recombinant USP2a catalytic domain (residues 258-605) (Homo sapiens)
Sequence (O75604 258-605): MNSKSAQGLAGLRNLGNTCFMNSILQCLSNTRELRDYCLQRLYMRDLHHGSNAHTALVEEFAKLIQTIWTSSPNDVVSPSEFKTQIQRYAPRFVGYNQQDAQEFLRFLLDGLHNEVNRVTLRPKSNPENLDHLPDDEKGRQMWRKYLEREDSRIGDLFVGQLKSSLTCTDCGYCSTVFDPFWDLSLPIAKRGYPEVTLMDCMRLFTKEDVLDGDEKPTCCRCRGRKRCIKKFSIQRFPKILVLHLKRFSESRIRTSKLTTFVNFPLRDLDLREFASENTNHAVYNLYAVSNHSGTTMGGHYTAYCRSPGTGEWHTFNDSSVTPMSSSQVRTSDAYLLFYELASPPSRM
assay protocol: Ub-AMC hydrolysis assay
measurement parameters: read-out: IC50, USP2a activity, Ub-AMC Assay; 30 min pre-incubation
pIC50: −log10 of the molar value.
// reported pIC50 for each item listed

Here is how some molecules turned out for pIC50.
COC(=O)CC[C@@H](C)[C@H]1CC[C@H]2[C@@H]3CC[C@@H]4C[C@H](O)CC[C@]4(C)[C@H]3CC[C@]12C [LCAME, Methyl 3-Hydroxylithocholanoate]    < 4.30
C[C@H](CCC(=O)N1CCOCC1)[C@H]1CC[C@H]2[C@@H]3CC[C@@H]4C[C@H](O)CC[C@]4(C)[C@H]3CC[C@]12C    < 4.00

Read the next record carefully.
Query C[C@H](CCC(=O)NCC(=O)O)[C@H]1CC[C@H]2[C@@H]3CC[C@@H]4C[C@H](O)CC[C@]4(C)[C@H]3CC[C@]12C [LCAGLY, N-(3-hydroxylithocholanolyl)glycine] yields pIC50 of < 4.30
